METHOD SUMMARY: Cytotoxicity against human 518A2 cells measured after 96 hrs by SRB assay
Format: functional, cell-based
STUDY CONDITIONS: 518A2, 96 h
pEC50: −log10 of the molar value.
Mark 0 for pEC50 values under 5, and 1 for everything at or above.

q: Test whether the compound CC(=O)OC[C@@]1(C)[C@@H]2CC[C@]3(C)[C@H](CC=C4[C@@H]5[C@@H](C)[C@H](C)CC[C@]5(C(=O)Nc5cncc6ccccc56)CC[C@]43C)[C@@]2(C)C[C@@H](OC(C)=O)[C@@H]1OC(C)=O records pEC50 of 5 or higher.
a: 1

q: Test whether the compound CC1(C)CC[C@]2(C(=O)O)CC[C@]3(C)C(=CC[C@@H]4[C@@]5(C)C[C@H](O)[C@H](O)C(C)(C)[C@@H]5CC[C@]43C)[C@@H]2C1 records pEC50 of 5 or higher.
a: 0

q: Test whether the compound CC(=O)O[C@H]1C[C@]2(C)[C@H]3CC=C4[C@@H]5CC(C)(C)CC[C@]5(C(=O)Nc5ccnc6ccccc56)CC[C@@]4(C)[C@]3(C)CC[C@H]2C(C)(C)[C@H]1OC(C)=O records pEC50 of 5 or higher.
a: 1

q: Test whether the compound CC(=O)O[C@H]1C[C@]2(C)[C@H]3CC=C4[C@@H]5CC(C)(C)CC[C@]5(C(=O)Nc5cccc6cccnc56)CC[C@@]4(C)[C@]3(C)CC[C@H]2C(C)(C)[C@H]1OC(C)=O records pEC50 of 5 or higher.
a: 1

---

METHOD SUMMARY: Cytotoxicity against mouse NIH/3T3 cells measured after 96 hrs by SRB assay
Type: toxicity, NIH3T3
MEASURE NAME: EC50 at 96 h

The compound listed as CC(=O)O[C@H]1C[C@]2(C)[C@H]3CC=C4[C@@H]5[C@@H](C)[C@H](C)CC[C@]5(C(=O)Nc5ccncc5)CC[C@@]4(C)[C@]3(C)CC[C@H]2C(C)(C)[C@H]1OC(C)=O shows EC50 at 96 h equal to 5.7 µM

The compound listed as CC(=O)O[C@H]1C[C@]2(C)[C@H]3CC=C4[C@@H]5[C@@H](C)[C@H](C)CC[C@]5(C(=O)O)CC[C@@]4(C)[C@]3(C)CC[C@H]2C(C)(C)[C@H]1OC(C)=O shows EC50 at 96 h equal to 12.7 µM

The compound listed as CC(=O)OC[C@@]1(C)[C@@H]2CC[C@]3(C)[C@H](CC=C4[C@@H]5[C@@H](C)[C@H](C)CC[C@]5(C(=O)Nc5cncc6ccccc56)CC[C@]43C)[C@@]2(C)C[C@@H](OC(C)=O)[C@@H]1OC(C)=O shows EC50 at 96 h equal to 3.23 µM

The compound listed as CC(=O)O[C@H]1C[C@]2(C)[C@H]3CC=C4[C@@H]5CC(C)(C)CC[C@]5(C(=O)Nc5cncc6ccccc56)CC[C@@]4(C)[C@]3(C)CC[C@H]2C(C)(C)[C@H]1OC(C)=O shows EC50 at 96 h equal to > 60 µM

The compound listed as CC(=O)OC[C@@]1(C)[C@@H]2CC[C@]3(C)[C@H](CC=C4[C@@H]5[C@@H](C)[C@H](C)CC[C@]5(C(=O)Nc5cccc6ncccc56)CC[C@]43C)[C@@]2(C)C[C@@H](OC(C)=O)[C@@H]1OC(C)=O shows EC50 at 96 h equal to 10.2 µM

Source listed as ChEMBL document CHEMBL3865812.
